assay: physchem; conditions: 66% dmf, second titratable group
measured-property: pKa

O=C(Cc1ccccn1)NO [N-hydroxy-2-pyridineacetamide] ... 11.7
O=C(Cc1cccnc1)NO [N-hydroxy 3-pyridineacetamide] ... 11.5
